Hey, just so you know, these numbers are from PubChem BioAssay AID1159580.

test: chemical genetic growth profiling, strain panel (AID 1159580);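 further: tested at 20 µM; growth read once vehicle control cultures reached saturation at 30 °C; 1 = growth at the plate median or of vehicle wells; lower values mean less growth of the strain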; conditions: S. cerevisiae deletion strains, growth OD, locus YDL101C, strain DUN1, stronger effect = lower value
Among all 5,500 compounds or so, about 2,000 (36%) were called active. Inconclusive results (about 18%) are left out. The list shows a part of the results.
metric.name: normalized growth
Just the number, please.

query: // returns reported normalized growth for input O=C(O)CCCCCCCCCCCCC1C=CCC1 (configuration not stated)
result: 0.958

query: // returns reported normalized growth for input "O=C(Nc1cccc(C(F)(F)F)c1)Oc1ccc(F)cc1Cl"
result: 0.992

query: // returns reported normalized growth for input "Nc1nc2ncc(CNc3ccc(C(=O)N[C@@H](CCC(=O)O)C(=O)O)cc3)nc2c(=O)[nH]1"
result: 0.996

query: // returns reported normalized growth for input "COc1cc(C(=O)Oc2c(Cl)cc(Cl)cc2C=Nc2ccc([N+](=O)[O-])cc2C#N)cc(OC)c1OC"
result: 0.987

query: // returns reported normalized growth for input "CC(C)(O)C#Cc1ccc(/C=N\O)cc1"
result: 0.99

query: // returns reported normalized growth for input CCCCCCCC1CC/C(=C\c2ccc(/C=C3\CCC(CCCCCCC)C3=O)cc2)C1=O (configuration not stated)
result: 0.985

query: // returns reported normalized growth for input CC1=CC(=O)CC(C)(C)C1(O)/C=C/C(C)=C\C(=O)O (configuration not stated)
result: 0.987

query: // returns reported normalized growth for input "CCOC(=O)CCc1cc(N=Cc2cc(Br)ccc2O)c(O)c(N=Cc2cc(Br)ccc2O)c1"
result: 0.967

query: // returns reported normalized growth for input "COc1ccc(/C=C/C(=O)O)cc1OC"
result: 1

query: // returns reported normalized growth for input "Cc1ccc(C(C)C)cc2c(C)ccc1-2"
result: 0.991

query: // returns reported normalized growth for input "O=C1/C(=C/c2c(F)cccc2Cl)Cc2ccccc21"
result: 0.96

query: // returns reported normalized growth for input CC(=O)C1=C(O)C2C3c4c[nH]c5cccc(c45)CC3C(C)(C)N2C1=O (configuration not stated)
result: 1.01

query: // returns reported normalized growth for input "Cc1onc(-c2ccccc2Cl)c1C(=O)Nc1ccc(S(=O)(=O)Nc2nccs2)cc1"
result: 0.977

query: // returns reported normalized growth for input "CC(C)(O)C#Cc1ccc(/C=N\Nc2c(Cl)cc(Cl)cc2Cl)cc1"
result: 0.986

query: // returns reported normalized growth for input CC(COc1ccccc1)N(CCCl)Cc1ccccc1 (configuration not stated)
result: 1.01

query: // returns reported normalized growth for input C=CCN1CC[C@]23c4c5ccc(O)c4OC2C(=O)CC[C@@]3(O)[C@H]1C5 (some centres not stated)
result: 1.02

query: // returns reported normalized growth for input "COc1cc(C(=O)Oc2c(Cl)cc(Cl)cc2C=Nc2cccc(C(F)(F)F)c2)cc(OC)c1OC"
result: 0.986

query: // returns reported normalized growth for input "COC(=O)c1ccc([N+](=O)[O-])cc1Cl"
result: 0.989

query: // returns reported normalized growth for input CCN(CC)CCOC(=O)C(Cc1cccc2ccccc12)CC1CCCO1 (configuration not stated)
result: 1

query: // returns reported normalized growth for input "COCCOc1ccccc1NC(=S)SCCSC(=S)Nc1ccccc1OCCOC"
result: 0.973

query: // returns reported normalized growth for input "Nc1cc(-c2ccc(OC(F)(F)F)cc2)nn1-c1ccc(Cl)c(Cl)c1"
result: 1

query: // returns reported normalized growth for input "CC(C)(O)C#Cc1ccc(/C=N\Nc2ccccc2)cc1"
result: 0.954

query: // returns reported normalized growth for input "NC(=O)N/N=C\c1ccc([N+](=O)[O-])o1"
result: 0.993

query: // returns reported normalized growth for input "CCOC(N)=O"
result: 1

query: // returns reported normalized growth for input "O=c1[nH]cnc2ccc(Br)cc12"
result: 0.98

query: // returns reported normalized growth for input CC[C@@H](C(=O)[C@@H](C)[C@@H](O)[C@H](C)[C@@H]1O[C@@H]([C@@H](CC)C(=O)O)CC[C@@H]1C)[C@H]1OC2(C=C[C@@H](O)[C@]3(CC[C@@](C)([C@H]4CC[C@](O)(CC)[C@H](C)O4)O3)O2)[C@H](C)C[C@@H]1C (some centres not stated)
result: 0.943

query: // returns reported normalized growth for input "CSc1c(C#N)c(-c2ccc(Cl)cc2)nn1C(=O)c1ccccc1Cl"
result: 0.94

query: // returns reported normalized growth for input "CN(C)c1ccc(/C=N\NC(=O)CCc2ccc(O)cc2)c(Cl)c1"
result: 1.05

query: // returns reported normalized growth for input "CSc1nc2ccc(NC(=O)c3c(-c4ccccc4)noc3C)cc2s1"
result: 1.01

query: // returns reported normalized growth for input N#CC1=C(N)C(C#N)(C#N)C2(CCCCC2)C2CCCC=C12 (configuration not stated)
result: 0.983

query: // returns reported normalized growth for input "C[C@H](COc1ccccc1)N[C@H](C)[C@H](O)c1ccc(O)cc1"
result: 1

query: // returns reported normalized growth for input "CCOC(=O)CCc1cc(N=Cc2cc(Cl)cc(Cl)c2O)c(O)c(N=Cc2cc(Cl)cc(Cl)c2O)c1"
result: 0.48

query: // returns reported normalized growth for input "S=c1[nH]c2ccccc2s1"
result: 0.99

query: // returns reported normalized growth for input OCC(S)CS (configuration not stated)
result: 0.985

query: // returns reported normalized growth for input "O=C1OCCN1/N=C\c1ccc([N+](=O)[O-])o1"
result: 0.95

query: // returns reported normalized growth for input "C[C@@H]1C[C@@H]([C@H](O)CC2CC(=O)NC(=O)C2)C(=O)[C@@H](C)C1"
result: 0.0509

query: // returns reported normalized growth for input "O=C1CN(/N=C\c2ccc([N+](=O)[O-])o2)C(=O)N1"
result: 0.995
